Each recorded value in this set is attributed to the supplement of paper PMC10567573.

B1: CAMK2A (parent)
chain: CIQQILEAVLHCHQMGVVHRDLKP

Variants of: B1
Test summary: protein stability index of a GFP-peptide fusion (GPS, HEK-293T) (PSI 1-6); higher = more stable;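 note: lentivirally expressed fusions sorted by FACS into six bins by GFP to DsRed ratio, PSI derived from sequencing read proportions per bin multiplied by bin number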
Condition set: c terminus: a fixed tail appended
Label met when protein stability index >= 2; otherwise not met.

Please review the following examples before continuing.
Q3A = met
R20W = met
P24L = not met
G16I = met

Q) Has R20L a recorded protein stability index greater than or equal to 2?
A) met

Q) Has L6G a recorded protein stability index greater than or equal to 2?
A) met

Q) Has M15F a recorded protein stability index greater than or equal to 2?
A) not met

Q) Has L22E a recorded protein stability index greater than or equal to 2?
A) met

Q) Has V17M a recorded protein stability index greater than or equal to 2?
A) met

Q) Has P24I a recorded protein stability index greater than or equal to 2?
A) met

Q) Has H19W a recorded protein stability index greater than or equal to 2?
A) met

Q) Has H13N a recorded protein stability index greater than or equal to 2?
A) met

Q) Has H13Q a recorded protein stability index greater than or equal to 2?
A) not met
